Source of measurements: patent US11713338B2

# target under test: integrin α4β7 (RPMI8866 human cells adhering to MAdCAM-1) (Homo sapiens, UniProt P13612+P26010)
# Construct: RMP18866 cells, which express integrin α4β7; host or cells: RPMI8866
# experiment description: Integrin α4β7-MAdCAM cell adhesion assay (RPMI8866 cells)
# Assay type: cell-based
# condition parameters: RPMI8866 cells adhering to MAdCAM; read-out: RPMI8866 Adhesion α4β7/MAdCAM IC50
compounds and their reported IC50
Returns: string containing the numeric result and its unit.

compound	metric name	reported value
CC(C)C[C@@H]1NC(=O)c2ccc(-c3ccc(N4CCN(C(=O)Cc5cccc(CC(=O)N6CCN(c7ccc(-c8ccc9cc8CNC(=O)[C@@H]8CCCN8[C@H](C(=O)NC(C)(C)C)[C@H](C)NC(=O)[C@H]([C@@H](C)O)NC(=O)[C@H](CC(=O)O)NC(=O)[C@H](CC(C)C)NC9=O)cc7)CC6)c5)CC4)cc3)c(c2)CNC(=O)[C@@H]2CCCN2[C@H](C(=O)NC(C)(C)C)[C@H](C)NC(=O)[C@H]([C@@H](C)O)NC(=O)[C@H](CC(=O)O)NC1=O [Compound 462]	IC50	0.042 µM
CC(C)C[C@@H]1NC(=O)c2ccc(-c3ccc(N4CCN(C(=O)[C@H]5CCC[C@H]5C(=O)N5CCN(c6ccc(-c7ccc8cc7CNC(=O)[C@@H]7CCCN7[C@H](C(=O)NC(C)(C)C)[C@H](C)NC(=O)[C@H]([C@@H](C)O)NC(=O)[C@H](CC(=O)O)NC(=O)[C@H](CC(C)C)NC8=O)cc6)CC5)CC4)cc3)c(c2)CNC(=O)[C@@H]2CCCN2[C@H](C(=O)NC(C)(C)C)[C@H](C)NC(=O)[C@H]([C@@H](C)O)NC(=O)[C@H](CC(=O)O)NC1=O [Compound 458]	IC50	0.042 µM

Input: Give a short answer stating reported IC50 for CC(C)C[C@@H]1NC(=O)c2ccc(-c3ccc(N4CCN(C(=O)CCOCCOCCOCCOCCOCCOCCOCCC(=O)N5CCN(c6ccc(-c7ccc8cc7CNC(=O)[C@@H]7CCCN7[C@H](C(=O)NC(C)(C)C)[C@H](C)NC(=O)[C@H]([C@@H](C)O)NC(=O)[C@H](CC(=O)O)NC(=O)[C@H](CC(C)C)NC8=O)cc6)CC5)CC4)cc3)c(c2)CNC(=O)[C@@H]2CCCN2[C@H](C(=O)NC(C)(C)C)[C@H](C)NC(=O)[C@H]([C@@H](C)O)NC(=O)[C@H](CC(=O)O)NC1=O [Compound 510] .
Output: 0.087 µM

----------
# target under test: integrin α4β7 (RPMI8866 human cells adhering to MAdCAM-1) (Homo sapiens, UniProt P13612+P26010)
# Construct: RMP18866 cells, which express integrin α4β7; host or cells: RPMI8866
# Sequence (P13612 34-1032): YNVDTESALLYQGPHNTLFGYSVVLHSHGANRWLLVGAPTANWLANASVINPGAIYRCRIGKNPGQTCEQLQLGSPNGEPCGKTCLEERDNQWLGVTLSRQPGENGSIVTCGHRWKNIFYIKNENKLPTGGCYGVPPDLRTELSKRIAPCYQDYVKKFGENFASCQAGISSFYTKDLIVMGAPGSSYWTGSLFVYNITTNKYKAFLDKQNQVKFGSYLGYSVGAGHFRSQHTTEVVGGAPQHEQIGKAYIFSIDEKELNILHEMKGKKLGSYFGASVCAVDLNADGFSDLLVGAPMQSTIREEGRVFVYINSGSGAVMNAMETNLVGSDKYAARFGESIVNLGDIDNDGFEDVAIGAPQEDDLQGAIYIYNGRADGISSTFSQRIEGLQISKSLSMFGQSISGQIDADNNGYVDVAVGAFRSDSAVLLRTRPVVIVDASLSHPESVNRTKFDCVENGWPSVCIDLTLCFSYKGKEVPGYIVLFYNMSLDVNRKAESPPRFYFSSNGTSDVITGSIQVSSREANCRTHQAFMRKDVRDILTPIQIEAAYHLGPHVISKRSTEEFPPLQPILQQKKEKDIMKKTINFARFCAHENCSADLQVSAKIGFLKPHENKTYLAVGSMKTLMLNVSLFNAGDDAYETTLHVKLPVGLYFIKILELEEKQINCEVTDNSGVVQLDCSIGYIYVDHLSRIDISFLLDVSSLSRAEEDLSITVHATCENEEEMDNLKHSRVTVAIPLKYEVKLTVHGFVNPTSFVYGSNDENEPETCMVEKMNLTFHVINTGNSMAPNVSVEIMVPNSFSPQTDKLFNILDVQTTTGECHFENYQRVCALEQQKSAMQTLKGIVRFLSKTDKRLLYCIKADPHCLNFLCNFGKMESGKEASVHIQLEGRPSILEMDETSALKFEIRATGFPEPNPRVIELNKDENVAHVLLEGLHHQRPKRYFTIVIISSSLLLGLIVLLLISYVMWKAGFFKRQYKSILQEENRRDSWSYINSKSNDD
# Sequence (P26010 20-798): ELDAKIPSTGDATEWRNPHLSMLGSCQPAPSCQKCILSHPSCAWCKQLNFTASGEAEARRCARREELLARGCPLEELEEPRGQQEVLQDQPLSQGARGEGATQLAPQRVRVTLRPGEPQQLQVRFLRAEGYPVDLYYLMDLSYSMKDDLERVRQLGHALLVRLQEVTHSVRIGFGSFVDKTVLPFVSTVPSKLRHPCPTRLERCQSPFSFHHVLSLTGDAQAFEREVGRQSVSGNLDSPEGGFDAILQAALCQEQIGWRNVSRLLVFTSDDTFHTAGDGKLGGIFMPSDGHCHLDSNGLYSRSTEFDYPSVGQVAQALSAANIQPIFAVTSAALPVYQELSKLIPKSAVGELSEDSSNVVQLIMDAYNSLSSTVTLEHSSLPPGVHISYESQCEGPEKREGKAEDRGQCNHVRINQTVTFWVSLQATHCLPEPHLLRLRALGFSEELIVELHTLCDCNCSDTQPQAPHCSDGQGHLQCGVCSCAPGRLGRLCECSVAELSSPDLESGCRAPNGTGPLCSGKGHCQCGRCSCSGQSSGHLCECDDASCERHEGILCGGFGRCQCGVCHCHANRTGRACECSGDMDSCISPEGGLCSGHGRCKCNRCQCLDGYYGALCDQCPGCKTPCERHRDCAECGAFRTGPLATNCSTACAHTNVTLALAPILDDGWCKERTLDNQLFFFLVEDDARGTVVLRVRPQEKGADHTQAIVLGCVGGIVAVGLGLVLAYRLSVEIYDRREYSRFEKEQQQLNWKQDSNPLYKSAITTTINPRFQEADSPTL
# experiment description: Integrin α4β7-MAdCAM cell adhesion assay (RPMI8866 cells)
# Type: cell-based
# condition parameters: RPMI8866 cells adhering to MAdCAM; read-out: RPMI8866 Adhesion α4β7/MAdCAM IC50
metric name: pIC50
Scale: negative log10 of molar concentration, which is what pIC50 denotes.

// below: answered compounds
record smiles	pIC50
CC(C)C[C@@H]1NC(=O)c2ccc(-c3ccc(N4CCN(C(=O)c5ccccc5-c5ccccc5C(=O)N5CCN(c6ccc(-c7ccc8cc7CNC(=O)[C@@H]7CCCN7[C@H](C(=O)NC(C)(C)C)[C@H](C)NC(=O)[C@H]([C@@H](C)O)NC(=O)[C@H](CC(=O)O)NC(=O)[C@H](CC(C)C)NC8=O)cc6)CC5)CC4)cc3)c(c2)CNC(=O)[C@@H]2CCCN2[C@H](C(=O)NC(C)(C)C)[C@H](C)NC(=O)[C@H]([C@@H](C)O)NC(=O)[C@H](CC(=O)O)NC1=O	8.00
CC(C)C[C@@H]1NC(=O)c2ccc(-c3ccc(N4CCN(C(=O)[C@H](CCCCNC(=O)CCCCCC(=O)NCCCC[C@H](NC(=O)OCc5ccccc5)C(=O)N5CCN(c6ccc(-c7ccc8cc7CNC(=O)[C@@H]7CCCN7[C@H](C(=O)NC(C)(C)C)[C@H](C)NC(=O)[C@H]([C@@H](C)O)NC(=O)[C@H](CC(=O)O)NC(=O)[C@H](CC(C)C)NC8=O)cc6)CC5)NC(=O)OCc5ccccc5)CC4)cc3)c(c2)CNC(=O)[C@@H]2CCCN2[C@H](C(=O)NC(C)(C)C)[C@H](C)NC(=O)[C@H]([C@@H](C)O)NC(=O)[C@H](CC(=O)O)NC1=O	7.44
CC(C)C[C@@H]1NC(=O)c2ccc(-c3ccc(N4CCN(C(=O)c5ccccc5C(=O)N5CCN(c6ccc(-c7ccc8cc7CNC(=O)[C@@H]7CCCN7[C@H](C(=O)NC(C)(C)C)[C@H](C)NC(=O)[C@H]([C@@H](C)O)NC(=O)[C@H](CC(=O)O)NC(=O)[C@H](CC(C)C)NC8=O)cc6)CC5)CC4)cc3)c(c2)CNC(=O)[C@@H]2CCCN2[C@H](C(=O)NC(C)(C)C)[C@H](C)NC(=O)[C@H]([C@@H](C)O)NC(=O)[C@H](CC(=O)O)NC1=O	7.60
CC(C)C[C@@H]1NC(=O)c2ccc(-c3ccc(N4CCN(C(=O)CC[C@@H](N)C(=O)N5CCN(c6ccc(-c7ccc8cc7CNC(=O)[C@@H]7CCCN7[C@H](C(=O)NC(C)(C)C)[C@H](C)NC(=O)[C@H]([C@@H](C)O)NC(=O)[C@H](CC(=O)O)NC(=O)[C@H](CC(C)C)NC8=O)cc6)CC5)CC4)cc3)c(c2)CNC(=O)[C@@H]2CCCN2[C@H](C(=O)NC(C)(C)C)[C@H](C)NC(=O)[C@H]([C@@H](C)O)NC(=O)[C@H](CC(=O)O)NC1=O	7.52

Input: Give a short answer stating reported pIC50 for `CC(C)C[C@@H]1NC(=O)c2ccc(-c3ccc(N4CCN(C(=O)CCOCCOCCOCCOCCOCCOCCOCCOCCOCCOCCOCCOCCOCCC(=O)N5CCN(c6ccc(-c7ccc8cc7CNC(=O)[C@@H]7CCCN7[C@H](C(=O)NC(C)(C)C)[C@H](C)NC(=O)[C@H]([C@@H](C)O)NC(=O)[C@H](CC(=O)O)NC(=O)[C@H](CC(C)C)NC8=O)cc6)CC5)CC4)cc3)c(c2)CNC(=O)[C@@H]2CCCN2[C@H](C(=O)NC(C)(C)C)[C@H](C)NC(=O)[C@H]([C@@H](C)O)NC(=O)[C@H](CC(=O)O)NC1=O` .
Output: 7.38

Input: Give a short answer stating reported pIC50 for `CC(C)C[C@@H]1NC(=O)c2ccc(-c3ccc(N4CCN(C(=O)CCOCCOCCOCCOCCOCCC(=O)N5CCN(c6ccc(-c7ccc8cc7CNC(=O)[C@@H]7CCCN7[C@H](C(=O)NC(C)(C)C)[C@H](C)NC(=O)[C@H]([C@@H](C)O)NC(=O)[C@H](CC(=O)O)NC(=O)[C@H](CC(C)C)NC8=O)cc6)CC5)CC4)cc3)c(c2)CNC(=O)[C@@H]2CCCN2[C@H](C(=O)NC(C)(C)C)[C@H](C)NC(=O)[C@H]([C@@H](C)O)NC(=O)[C@H](CC(=O)O)NC1=O` .
Output: 7.51

Input: Give a short answer stating reported pIC50 for `CC(C)C[C@@H]1NC(=O)c2ccc(-c3ccc(N4CCN(CC(=O)N5CCN(c6ccc(-c7ccc8cc7CNC(=O)[C@@H]7CCCN7[C@H](C(=O)NC(C)(C)C)[C@H](C)NC(=O)[C@H]([C@@H](C)O)NC(=O)[C@H](CC(=O)O)NC(=O)[C@H](CC(C)C)NC8=O)cc6)CC5)CC4)cc3)c(c2)CNC(=O)[C@@H]2CCCN2[C@H](C(=O)NC(C)(C)C)[C@H](C)NC(=O)[C@H]([C@@H](C)O)NC(=O)[C@H](CC(=O)O)NC1=O` .
Output: 7.44

Input: Give a short answer stating reported pIC50 for `CC(C)C[C@@H]1NC(=O)c2ccc(-c3ccc(N4CCN(C(=O)c5ccc(C(=O)N6CCN(c7ccc(-c8ccc9cc8CNC(=O)[C@@H]8CCCN8[C@H](C(=O)NC(C)(C)C)[C@H](C)NC(=O)[C@H]([C@@H](C)O)NC(=O)[C@H](CC(=O)O)NC(=O)[C@H](CC(C)C)NC9=O)cc7)CC6)s5)CC4)cc3)c(c2)CNC(=O)[C@@H]2CCCN2[C@H](C(=O)NC(C)(C)C)[C@H](C)NC(=O)[C@H]([C@@H](C)O)NC(=O)[C@H](CC(=O)O)NC1=O` .
Output: 7.77

Input: Give a short answer stating reported pIC50 for `CC(C)C[C@@H]1NC(=O)c2ccc(-c3ccc(N4CCN(C(=O)C56CC7CC(C5)CC(C(=O)N5CCN(c8ccc(-c9ccc%10cc9CNC(=O)[C@@H]9CCCN9[C@H](C(=O)NC(C)(C)C)[C@H](C)NC(=O)[C@H]([C@@H](C)O)NC(=O)[C@H](CC(=O)O)NC(=O)[C@H](CC(C)C)NC%10=O)cc8)CC5)(C7)C6)CC4)cc3)c(c2)CNC(=O)[C@@H]2CCCN2[C@H](C(=O)NC(C)(C)C)[C@H](C)NC(=O)[C@H]([C@@H](C)O)NC(=O)[C@H](CC(=O)O)NC1=O` .
Output: 7.21
